- Tgt: Amine oxidase [flavin-containing] A (Rattus norvegicus, UniProt P21396)
- Sequence (P21396 whole entry): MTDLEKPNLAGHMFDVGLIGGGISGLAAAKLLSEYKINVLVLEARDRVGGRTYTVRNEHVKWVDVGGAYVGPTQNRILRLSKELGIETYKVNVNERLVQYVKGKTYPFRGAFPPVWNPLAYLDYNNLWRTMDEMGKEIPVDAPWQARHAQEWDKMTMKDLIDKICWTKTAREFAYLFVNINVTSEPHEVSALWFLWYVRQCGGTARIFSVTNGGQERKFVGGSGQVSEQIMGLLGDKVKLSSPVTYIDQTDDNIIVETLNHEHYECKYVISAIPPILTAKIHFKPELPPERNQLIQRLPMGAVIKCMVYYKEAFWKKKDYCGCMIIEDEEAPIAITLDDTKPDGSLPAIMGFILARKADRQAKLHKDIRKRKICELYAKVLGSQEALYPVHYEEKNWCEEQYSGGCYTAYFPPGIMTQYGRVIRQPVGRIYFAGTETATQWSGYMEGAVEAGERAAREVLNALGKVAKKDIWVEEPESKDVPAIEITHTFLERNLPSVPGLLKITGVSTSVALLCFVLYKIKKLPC
Under this convention, met denotes IC50 strictly below 10 nM and not met denotes IC50 at or above 10 nM.

Exercise: Could you please tell me whether IC50 recorded for CNC(=O)/C=C1/COc2cc(OS(=O)(=O)c3ccc(OC)cc3)ccc21 is less than 10 nM?
Key: not met

Exercise: Could you please tell me whether IC50 recorded for CNC(=O)/C=C1/COc2cc(OS(=O)(=O)c3ccc(C(C)=O)cc3)ccc21 is less than 10 nM?
Key: not met

Further cases:
Exercise: Could you please tell me whether IC50 recorded for CNC(=O)/C=C1/COc2c1ccc(OS(=O)(=O)c1ccc(OC)cc1)c2C is less than 10 nM?
Key: met

Exercise: Could you please tell me whether IC50 recorded for CNC(=O)/C=C1/COc2cc(OS(=O)(=O)c3cccc(F)c3)ccc21 is less than 10 nM?
Key: not met

Exercise: Could you please tell me whether IC50 recorded for CNC(=O)/C=C1/COc2cc(OS(=O)(=O)c3ccc(Cl)cc3)ccc21 is less than 10 nM?
Key: not met

Exercise: Could you please tell me whether IC50 recorded for CNC(=O)/C=C1/COc2cc(OS(=O)(=O)c3ccc(S(C)(=O)=O)cc3)ccc21 is less than 10 nM?
Key: not met

---

Reported IC50 values follow for various compounds
- Tgt: Amine oxidase [flavin-containing] B (Rattus norvegicus, UniProt P19643)
- Sequence (P19643 whole entry): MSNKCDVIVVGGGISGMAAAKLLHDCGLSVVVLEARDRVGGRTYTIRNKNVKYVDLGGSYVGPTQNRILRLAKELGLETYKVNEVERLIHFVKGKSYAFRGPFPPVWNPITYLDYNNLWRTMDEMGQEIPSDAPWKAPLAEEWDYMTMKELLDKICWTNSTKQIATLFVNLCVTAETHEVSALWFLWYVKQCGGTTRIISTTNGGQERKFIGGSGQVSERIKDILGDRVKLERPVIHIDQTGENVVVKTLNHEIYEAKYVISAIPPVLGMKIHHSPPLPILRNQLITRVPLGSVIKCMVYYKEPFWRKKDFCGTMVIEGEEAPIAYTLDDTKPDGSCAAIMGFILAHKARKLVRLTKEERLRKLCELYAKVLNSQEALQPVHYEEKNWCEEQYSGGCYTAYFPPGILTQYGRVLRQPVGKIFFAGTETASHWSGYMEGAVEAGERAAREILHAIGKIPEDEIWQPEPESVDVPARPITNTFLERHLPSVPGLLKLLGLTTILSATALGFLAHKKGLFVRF
I only need the number, in nM, no unit after it.

Reference set (2 entries):
Exercise: Provide measured IC50 value, entry: CNC(=O)Cc1coc2cc(OCc3cccc(Cl)c3)ccc12
Key: 284

Exercise: Provide measured IC50 value, entry: NCc1cc(=O)oc2cc(OS(=O)(=O)c3cccc(Cl)c3)ccc12
Key: 3300

Consider now this further compound.
Exercise: Provide measured IC50 value, entry: CNCc1cc(=O)oc2cc(OS(=O)(=O)c3cccc(Cl)c3)ccc12
Key: 1700

---

- Tgt: Amine oxidase [flavin-containing] B (Rattus norvegicus, UniProt P19643)
- Experiment: Inhibition of MAO-B in Sprague-Dawley rat brain mitochondrial suspension using kynuramine as substrate at 10 uM incubated for 5 mins prior to substrate addition measured for 5 mins by spectrophotometry
Reported inhibition at 10 µM values follow for various molecules
I only need the number, in %, no unit after it.

Reference set (5 entries):
Exercise: Provide measured inhibition at 10 µM value, entry: CNC(=O)/C=C1/COc2c1ccc(OS(=O)(=O)c1ccccc1)c2C
Key: 5

Exercise: Provide measured inhibition at 10 µM value, entry: CNC(=O)/C=C1/COc2c1ccc(OS(=O)(=O)c1ccc(C#N)cc1)c2C
Key: 6

Exercise: Provide measured inhibition at 10 µM value, entry: CNC(=O)/C=C1/COc2cc(OS(=O)(=O)c3ccc(S(C)(=O)=O)cc3)ccc21
Key: 0

Exercise: Provide measured inhibition at 10 µM value, entry: CNC(=O)/C=C1/COc2cc(OS(=O)(=O)c3ccc(Cl)cc3)ccc21
Key: 6

Exercise: Provide measured inhibition at 10 µM value, entry: CC(C)NC(=O)/C=C1/COc2cc(OS(=O)(=O)c3cccc(Cl)c3)ccc21
Key: 1

Further cases:
Exercise: Provide measured inhibition at 10 µM value, entry: CCNC(=O)/C=C1/COc2cc(OS(=O)(=O)c3cccc(Cl)c3)ccc21
Key: 0

Exercise: Provide measured inhibition at 10 µM value, entry: CNC(=O)/C=C1/COc2cc(OS(=O)(=O)c3ccc(Cl)s3)ccc21
Key: 6

Exercise: Provide measured inhibition at 10 µM value, entry: CNC(=O)c1cc(=O)oc2cc(OS(=O)(=O)c3cccc(Cl)c3)ccc12
Key: 9

Exercise: Provide measured inhibition at 10 µM value, entry: CNC(=O)/C=C1/COc2c1ccc(OS(=O)(=O)c1ccc(OC)cc1)c2C
Key: 0

Exercise: Provide measured inhibition at 10 µM value, entry: CNC(=O)/C=C1/COc2c1ccc(OS(=O)(=O)CCC(F)(F)F)c2C
Key: 5
